# Protocol Description: qHTS Validation assay for Inhibitors of Plasmodium falciparum Dd2 growth in vitro; further: nearly all actives have a fitted effect of over 70% in size
# Experimental Context: P. falciparum Dd2 in RBCs, SYBR Green growth, 72 h; series mostly up to 28.7 µM
# Description: Malaria, a parasitic disease spread to humans through the bite of a Plasmodium infected Anopheles mosquito, continues to be a global health burden affecting millions of people, with an estimated 228 million cases and 405,000 deaths in 2018. Concerns about safety and limitations of current antimalarial treatments strongly emphasize the need to develop new therapeutic options. […]
The campaign covered roughly 4,100 compounds. About 1,600 (39%) were called active. Roughly 25% stayed inconclusive and do not appear here. The call rests on the fitted dose curve; in most records, active means well fitted inhibition curve with a large enough effect; inconclusive means small, poorly fitted or top-dose-only effect; inactive means no such curve, though single readings can be large or run the other way. The list shows a part of the results.
Returns: one label drawn from 1 (yes) for active, 0 (no) for inactive

CNC(=O)[C@@H]1CN(C(=O)c2c[nH]c3ccccc23)C[C@H]1COC = 0 (no)
O=C(Cn1c(=O)c2cccn2c2cccnc21)NCc1ccccc1F = 0 (no)
N#C/C(=C\c1ccc(Cl)cc1)c1nc(-c2cc3ccccc3oc2=O)cs1 = 0 (no)

Exercise: Lab log entry: Cc1ccc(Cl)cc1N1CCN(C(=O)c2ccc3c(c2)N(Cc2ccccc2F)C(=O)c2ccccc2S3(=O)=O)CC1 — outcome as called in the assay?
Key: 1 (yes)

Exercise: Lab log entry: Cc1ccc(C)c(CN2C(=O)c3ccccc3S(=O)(=O)c3ccc(C(=O)N4CCCCCC4)cc32)c1 — outcome as called in the assay?
Key: 0 (no)

Exercise: Lab log entry: O=C(NCc1ccc(F)cc1)C1(CCO)CC12CCOCC2 (centres undefined) — outcome as called in the assay?
Key: 0 (no)

Exercise: Lab log entry: CCc1cccc(-n2c(=O)c3cccnc3n2CC(=O)Nc2ccc(F)c(C)c2)c1 — outcome as called in the assay?
Key: 1 (yes)

Exercise: Lab log entry: Cc1ccc(NC2=C(c3ccc(C(F)(F)F)cc3)C(=O)c3ccccc32)cc1F — outcome as called in the assay?
Key: 1 (yes)

Exercise: Lab log entry: CCC(=O)N1c2ccccc2CC1C(=O)NCCc1ccccc1OC (centres undefined) — outcome as called in the assay?
Key: 0 (no)
